- assay_remarks: Multiple Marker Experiment 1: urine samples, adherent with all markers, marker concentration by LC-MS/MS
- condition_notes: human, in vivo, Subject B, Urine Results, Day 8 sample; Experiment #1, adherent with all markers; each marker dosed once
quantity: concentration at 8 day
The reply should consist of the numeric value with the unit placed after it.

* CN(C)C(=O)C(CCN1CCC(O)(c2ccc(Cl)cc2)CC1)(c1ccccc1)c1ccccc1 [Loperamide] | 0.107 ng/mL

From here, focus on the item given below.
Which concentration at 8 day is listed for COc1ccc2c(c1)[C@]13CCCC[C@@H]1[C@H](C2)N(C)CC3 ?
3.56 ng/mL

* * *

Measured concentration at 4 day accompanies every entry in the list below.
- assay_remarks: clinical
- condition_notes: human, in vivo, Subject B, Urine Results
Give the value in ng/mL but do not write ng/mL after it.

* CN(C)CCOC(c1ccccc1)c1ccccc1 [Diphenhydramine] | 0

Okay, next one:
Given NC(N)=Nc1nc(CSCCC(N)=NS(N)(=O)=O)cs1 , state its recorded concentration at 4 day.
0
